Parameter inhibition: see the listing below.
Target: Macrophage-stimulating protein receptor (Homo sapiens) (UniProt Q04912)
Sequence (Q04912 25-304 limits assumed): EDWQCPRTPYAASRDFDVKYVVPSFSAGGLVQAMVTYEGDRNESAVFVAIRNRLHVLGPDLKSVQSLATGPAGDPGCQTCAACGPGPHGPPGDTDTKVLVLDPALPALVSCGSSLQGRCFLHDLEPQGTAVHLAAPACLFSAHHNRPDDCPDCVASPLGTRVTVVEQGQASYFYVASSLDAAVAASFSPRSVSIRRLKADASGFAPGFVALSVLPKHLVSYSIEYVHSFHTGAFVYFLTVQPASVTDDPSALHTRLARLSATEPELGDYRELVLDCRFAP
Sequence (Q04912 310-1400 limits assumed): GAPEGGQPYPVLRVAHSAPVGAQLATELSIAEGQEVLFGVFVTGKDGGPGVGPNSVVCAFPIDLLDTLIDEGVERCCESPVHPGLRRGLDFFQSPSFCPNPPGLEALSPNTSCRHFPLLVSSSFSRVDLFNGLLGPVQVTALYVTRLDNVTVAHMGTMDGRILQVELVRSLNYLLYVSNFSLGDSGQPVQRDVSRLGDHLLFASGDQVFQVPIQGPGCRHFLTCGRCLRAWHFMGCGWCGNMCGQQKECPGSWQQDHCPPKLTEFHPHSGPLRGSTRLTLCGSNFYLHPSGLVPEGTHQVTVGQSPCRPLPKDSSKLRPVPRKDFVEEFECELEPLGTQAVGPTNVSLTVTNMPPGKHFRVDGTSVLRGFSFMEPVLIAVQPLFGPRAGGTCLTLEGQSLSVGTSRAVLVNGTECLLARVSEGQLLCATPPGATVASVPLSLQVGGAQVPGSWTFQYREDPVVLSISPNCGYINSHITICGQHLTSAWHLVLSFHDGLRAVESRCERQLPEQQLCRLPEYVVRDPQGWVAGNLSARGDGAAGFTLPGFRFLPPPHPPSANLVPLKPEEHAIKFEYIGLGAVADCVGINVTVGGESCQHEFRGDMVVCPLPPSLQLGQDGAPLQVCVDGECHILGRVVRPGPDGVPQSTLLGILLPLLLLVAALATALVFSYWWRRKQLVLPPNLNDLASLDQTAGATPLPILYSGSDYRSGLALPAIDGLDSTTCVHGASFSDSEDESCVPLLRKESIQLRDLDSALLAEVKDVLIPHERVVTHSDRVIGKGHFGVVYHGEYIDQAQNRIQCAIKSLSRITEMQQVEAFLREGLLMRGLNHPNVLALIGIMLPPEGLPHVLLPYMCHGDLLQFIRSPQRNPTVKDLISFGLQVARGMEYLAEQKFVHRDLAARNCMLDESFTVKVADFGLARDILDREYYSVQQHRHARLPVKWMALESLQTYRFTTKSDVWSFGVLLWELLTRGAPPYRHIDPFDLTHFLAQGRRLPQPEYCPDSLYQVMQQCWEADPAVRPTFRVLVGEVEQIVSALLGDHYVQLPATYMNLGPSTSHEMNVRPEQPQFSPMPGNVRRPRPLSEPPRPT
Details: at 1 µM
Description: GSK_PKIS: RON mean inhibition at 1 uM [Nanosyn]
METRIC: inhibition (%)

{"SMI": "NC(=O)c1ccc(-c2nc(-c3ccccn3)c(-c3ccc4c(c3)OCO4)[nH]2)cc1", "READING": -1.49}
{"SMI": "COc1ccc(-c2coc3ncnc(N)c23)cc1", "READING": 5.93}
{"SMI": "CCCN1CCC=C(c2ccc(Nc3nc(Nc4ccccc4C(N)=O)c4cc[nH]c4n3)c(C)c2)C1", "READING": 11.6}
{"SMI": "Cc1cc(O)cc(C)c1/C=C/c1cncc(-c2nn[nH]n2)c1", "READING": 8.76}
{"SMI": "O=C1NC(=O)C(c2ccccc2Cl)=C1Nc1cccc(O)c1", "READING": 4.87}
{"SMI": "Nc1nc(-c2ccccn2)c(-c2ccc3ncccc3n2)s1", "READING": 6.53}
{"SMI": "COc1cc2c(cc1Nc1nc(N3CCc4ccccc43)c3cc[nH]c3n1)N(C(=O)CN(C)C)CC2", "READING": 4.66}
{"SMI": "O=C(Nc1n[nH]c2nc(-c3ccco3)c(Br)cc12)C1CC1", "READING": 4.05}
{"SMI": "CN(C)c1cc2c(Nc3ccc4nc(Cc5ccccc5)[nH]c4c3)ncnc2cn1", "READING": 3.46}
{"SMI": "CCCN1CCC(Oc2cc(Nc3nc(Nc4cccc(F)c4C(N)=O)c4cc[nH]c4n3)c(OC)cc2Cl)CC1", "READING": 6.9}
{"SMI": "Fc1cccc(COc2ccc(Nc3ncnc4cc(-c5ccc[nH]5)sc34)cc2Cl)c1", "READING": 4.33}
{"SMI": "Cc1ccc(NC(=O)c2ccnc(N3CCCC3)c2)cc1-c1ccc(C(=O)NCC2CC2)cc1", "READING": 6.95}
{"SMI": "COc1cccc(-n2ncc3c(N/N=C/c4cccc(F)c4)ncnc32)c1", "READING": 24.4}

* * *

Molecular target: Mitogen-activated protein kinase kinase kinase kinase 2 (Homo sapiens) (UniProt Q12851);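 further: values given as mean percent inhibition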
Sequence (Q12851 whole entry): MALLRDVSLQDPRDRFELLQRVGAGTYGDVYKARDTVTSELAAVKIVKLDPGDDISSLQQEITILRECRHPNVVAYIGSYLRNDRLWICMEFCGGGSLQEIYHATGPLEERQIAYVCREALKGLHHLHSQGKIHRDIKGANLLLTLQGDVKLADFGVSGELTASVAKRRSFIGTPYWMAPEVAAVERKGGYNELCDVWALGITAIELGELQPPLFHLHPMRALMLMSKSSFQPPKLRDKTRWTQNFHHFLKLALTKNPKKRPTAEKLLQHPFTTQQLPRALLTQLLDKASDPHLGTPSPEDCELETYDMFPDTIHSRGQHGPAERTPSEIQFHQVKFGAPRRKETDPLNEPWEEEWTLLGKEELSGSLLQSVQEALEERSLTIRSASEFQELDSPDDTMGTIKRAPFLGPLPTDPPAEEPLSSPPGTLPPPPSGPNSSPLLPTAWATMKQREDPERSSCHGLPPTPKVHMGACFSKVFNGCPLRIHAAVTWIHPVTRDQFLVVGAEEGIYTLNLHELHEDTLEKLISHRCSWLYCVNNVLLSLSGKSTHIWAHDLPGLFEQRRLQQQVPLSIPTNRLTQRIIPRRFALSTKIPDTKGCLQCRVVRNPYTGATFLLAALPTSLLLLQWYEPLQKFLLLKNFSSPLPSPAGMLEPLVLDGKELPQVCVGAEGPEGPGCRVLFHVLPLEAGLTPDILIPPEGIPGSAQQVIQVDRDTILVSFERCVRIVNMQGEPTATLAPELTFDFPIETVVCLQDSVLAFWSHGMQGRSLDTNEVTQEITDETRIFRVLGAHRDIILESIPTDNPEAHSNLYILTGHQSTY
Details: at 0.1 µM
Parameter inhibition: see the listing below.
METRIC: inhibition (%)

{"MOLECULE": "CCn1c(-c2nonc2N)nc2cncc(C(=O)N3CC[C@H](N)C3)c21", "UNIT_LABEL": "%", "READING": 0.43}
{"MOLECULE": "CCn1c(-c2nonc2N)nc2cncc(C(=O)N3CCNCC3)c21", "UNIT_LABEL": "%", "READING": 1.51}
{"MOLECULE": "COc1cc2ncn(-c3cc(OCc4ccccc4C(F)(F)F)c(C(N)=O)s3)c2cc1OC", "UNIT_LABEL": "%", "READING": 4.53}
{"MOLECULE": "CCc1cccc(NC(=O)Nc2ccc(Oc3ccc4nc(NC(=O)OC)[nH]c4c3)cc2)c1", "UNIT_LABEL": "%", "READING": 1.82}
{"MOLECULE": "Cn1cc(C=C2C(=O)Nc3cccnc32)c2ccccc21", "UNIT_LABEL": "%", "READING": 2.96}
{"MOLECULE": "CS(=O)(=O)CCNCc1nc(-c2ccc3ncnc(Nc4ccc(F)c(Cl)c4)c3c2)cs1", "UNIT_LABEL": "%", "READING": 1.34}
{"MOLECULE": "COc1ccc(-c2nn3ncccc3c2-c2ccnc(Nc3ccc(Cl)c(C(F)(F)F)c3)n2)cc1", "UNIT_LABEL": "%", "READING": 0.35}
{"MOLECULE": "COc1ccc2cc(-c3c(-c4ccncc4)nc(-c4ccc([S+](C)[O-])cc4)n3C)ccc2c1 (configuration not stated)", "UNIT_LABEL": "%", "READING": 0.6}
{"MOLECULE": "Fc1cccc(COc2ccc(Nc3ncnc4sc(-c5cccs5)cc34)cc2Cl)c1", "UNIT_LABEL": "%", "READING": -0.64}
{"MOLECULE": "Nc1nc(-c2ccccn2)c(-c2ccc3ncccc3n2)s1", "UNIT_LABEL": "%", "READING": 0.08}
{"MOLECULE": "NC(=O)c1ccc(-c2nc(-c3ccccn3)c(-c3ccc4c(c3)OCO4)[nH]2)cc1", "UNIT_LABEL": "%", "READING": 0.64}
{"MOLECULE": "Nc1nc(-c2ccc3c(c2)C(=Cc2cc(Br)c(O)c(Br)c2)C(=O)N3)cs1", "UNIT_LABEL": "%", "READING": 1.39}
{"MOLECULE": "COc1cccc(-n2ncc3c(N/N=C/c4cccc(F)c4)ncnc32)c1", "UNIT_LABEL": "%", "READING": 1.55}
{"MOLECULE": "O=C1NC(=O)C(c2cccc(Cl)c2)=C1Nc1ccc(O)c(Cl)c1", "UNIT_LABEL": "%", "READING": 4}
{"MOLECULE": "O=C1NC(=O)C(c2ccccc2Cl)=C1Nc1cccc(O)c1", "UNIT_LABEL": "%", "READING": 1.12}
{"MOLECULE": "COc1cc2ncn(-c3cc(O[C@@H](C)c4ccccc4Cl)c(C(N)=O)s3)c2cc1OC", "UNIT_LABEL": "%", "READING": 6.14}
{"MOLECULE": "Cc1cc(O)cc(C)c1/C=C/c1cncc(-c2nn[nH]n2)c1", "UNIT_LABEL": "%", "READING": 1.25}

* * *

Molecular target: Ribosomal protein S6 kinase alpha-3 (Homo sapiens);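 further: reported value is a mean inhibition figure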
Details: at 0.1 µM
Parameter inhibition: see the listing below.

{"COMPOUND": "CNC(=O)c1cncc(/C=C/c2c(Cl)cccc2Cl)c1", "UNIT_LABEL": "%", "inhibition": 0.14}
{"COMPOUND": "[O-][S+]1CCN(Cc2ccc(-c3ccc4ncnc(Nc5ccc(OCc6ccccc6)c(F)c5)c4c3)o2)CC1", "UNIT_LABEL": "%", "inhibition": -0.51}
{"COMPOUND": "CC(=O)Nc1cccc(C#Cc2cncnc2Nc2ccc(OCc3cccc(F)c3)c(Cl)c2)n1", "UNIT_LABEL": "%", "inhibition": 1.72}
{"COMPOUND": "CCn1c(-c2nonc2N)nc2c(N3CCCC3)nccc21", "UNIT_LABEL": "%", "inhibition": 0.44}
{"COMPOUND": "CS(=O)(=O)CCNCc1ccc(-c2ccc3ncnc(Nc4ccc(OCc5ccccc5)c(Cl)c4)c3c2)o1", "UNIT_LABEL": "%", "inhibition": -1.21}
{"COMPOUND": "Nc1ncnc2occ(-c3ccc(NC(=O)Nc4cccc(C(F)(F)F)c4)cc3)c12", "UNIT_LABEL": "%", "inhibition": 2.15}
{"COMPOUND": "NS(=O)(=O)c1ccc(N/N=C2\\C(=O)Nc3ccc(C(=O)NCCc4c[nH]cn4)cc32)cc1", "UNIT_LABEL": "%", "inhibition": 2.21}
{"COMPOUND": "Cc1ccc(C(=O)NC2CCCCC2)cc1-c1ccc(C(=O)NCC2CC2)cc1", "UNIT_LABEL": "%", "inhibition": 1.12}
{"COMPOUND": "CN(C)c1cc2c(Nc3ccc4nc(Cc5ccccc5)[nH]c4c3)ncnc2cn1", "UNIT_LABEL": "%", "inhibition": 2.23}
{"COMPOUND": "COc1cc2ncn(-c3cc(O[C@@H](C)c4ccccc4Cl)c(C(N)=O)s3)c2cc1OC", "UNIT_LABEL": "%", "inhibition": 1.79}
{"COMPOUND": "COc1ccc(COc2ccc(Cc3cnc(N)nc3N)cc2OC)cc1", "UNIT_LABEL": "%", "inhibition": 0.78}
{"COMPOUND": "CCn1c(-c2nonc2N)nc2cnc(Oc3cccc(NC(=O)c4ccc(OCCN5CCOCC5)cc4)c3)cc21", "UNIT_LABEL": "%", "inhibition": 12.2}
{"COMPOUND": "CCn1c(-c2nonc2N)nc2cncc(C(=O)N3CCNCC3)c21", "UNIT_LABEL": "%", "inhibition": 0.8}
{"COMPOUND": "CC1=C(C(=O)Nc2ccc3[nH]ncc3c2)C(c2ccc(F)cc2)NC(=O)N1 (stereo not drawn)", "UNIT_LABEL": "%", "inhibition": 2.28}
{"COMPOUND": "COc1ccc(-c2coc3ncnc(N)c23)cc1", "UNIT_LABEL": "%", "inhibition": 1.05}
{"COMPOUND": "NCc1ccc(-c2nc(-c3ccc(Cl)c(O)c3)c(-c3ccncc3)[nH]2)cc1", "UNIT_LABEL": "%", "inhibition": -1.01}
{"COMPOUND": "Cc1cc(O)cc(C)c1/C=C/c1cncc(-c2nn[nH]n2)c1", "UNIT_LABEL": "%", "inhibition": 1.94}
{"COMPOUND": "CCn1c(-c2nonc2N)nc2c(C#CC(C)(C)O)nc(CN3CCCC3)cc21", "UNIT_LABEL": "%", "inhibition": 1.08}
{"COMPOUND": "CC(C)=Cc1cccc2c1/C(=N/Nc1ccc(S(N)(=O)=O)cc1)C(=O)N2", "UNIT_LABEL": "%", "inhibition": 1.53}
{"COMPOUND": "c1cnn2ncc(-c3ccnc(Nc4ccc5c(c4)OCCO5)n3)c2c1", "UNIT_LABEL": "%", "inhibition": 0.94}
{"COMPOUND": "COc1cccc(-n2ncc3c(N/N=C/c4cccc(F)c4)ncnc32)c1", "UNIT_LABEL": "%", "inhibition": 2.2}
{"COMPOUND": "CCn1c(-c2nonc2N)nc2cncc(C(=O)N3CC[C@H](N)C3)c21", "UNIT_LABEL": "%", "inhibition": 31.3}
{"COMPOUND": "COc1ccc(-c2ccncc2)cc1C(N)=O", "UNIT_LABEL": "%", "inhibition": 1.67}

Value source: ChEMBL document CHEMBL1961873
